The origin of these recorded values is patent US20150307520A1.

For each record, write down the corresponding log10 IC50.
Target: p110β/p85α (Homo sapiens)
Sequence (P42338 whole entry): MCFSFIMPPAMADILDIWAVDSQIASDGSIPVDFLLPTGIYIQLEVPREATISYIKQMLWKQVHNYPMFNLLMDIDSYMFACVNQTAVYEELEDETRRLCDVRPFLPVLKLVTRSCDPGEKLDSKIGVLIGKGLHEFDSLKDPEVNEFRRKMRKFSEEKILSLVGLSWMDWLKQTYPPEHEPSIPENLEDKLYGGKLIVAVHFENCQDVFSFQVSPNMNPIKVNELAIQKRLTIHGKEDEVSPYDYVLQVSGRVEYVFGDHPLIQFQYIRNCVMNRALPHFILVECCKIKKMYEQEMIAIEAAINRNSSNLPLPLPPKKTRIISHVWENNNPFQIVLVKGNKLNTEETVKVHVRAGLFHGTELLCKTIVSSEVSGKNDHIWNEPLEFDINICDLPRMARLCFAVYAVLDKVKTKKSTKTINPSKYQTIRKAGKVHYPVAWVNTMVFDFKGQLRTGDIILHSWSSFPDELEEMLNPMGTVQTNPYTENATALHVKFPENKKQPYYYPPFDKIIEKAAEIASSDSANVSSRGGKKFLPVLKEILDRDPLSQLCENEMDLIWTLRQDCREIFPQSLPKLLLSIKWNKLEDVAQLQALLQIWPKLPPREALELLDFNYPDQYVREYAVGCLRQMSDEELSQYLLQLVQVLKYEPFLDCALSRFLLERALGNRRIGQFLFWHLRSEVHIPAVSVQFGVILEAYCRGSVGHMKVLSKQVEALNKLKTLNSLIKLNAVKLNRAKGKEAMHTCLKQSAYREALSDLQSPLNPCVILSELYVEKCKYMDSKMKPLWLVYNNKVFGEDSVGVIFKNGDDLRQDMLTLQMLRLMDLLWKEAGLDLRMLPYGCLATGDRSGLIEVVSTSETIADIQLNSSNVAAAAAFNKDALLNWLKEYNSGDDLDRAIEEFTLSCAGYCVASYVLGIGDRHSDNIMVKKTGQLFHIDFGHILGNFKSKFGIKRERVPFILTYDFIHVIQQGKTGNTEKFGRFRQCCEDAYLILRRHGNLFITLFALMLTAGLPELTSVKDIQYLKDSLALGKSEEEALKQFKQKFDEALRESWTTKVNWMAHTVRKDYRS
Sequence (P27986 2-724 partner): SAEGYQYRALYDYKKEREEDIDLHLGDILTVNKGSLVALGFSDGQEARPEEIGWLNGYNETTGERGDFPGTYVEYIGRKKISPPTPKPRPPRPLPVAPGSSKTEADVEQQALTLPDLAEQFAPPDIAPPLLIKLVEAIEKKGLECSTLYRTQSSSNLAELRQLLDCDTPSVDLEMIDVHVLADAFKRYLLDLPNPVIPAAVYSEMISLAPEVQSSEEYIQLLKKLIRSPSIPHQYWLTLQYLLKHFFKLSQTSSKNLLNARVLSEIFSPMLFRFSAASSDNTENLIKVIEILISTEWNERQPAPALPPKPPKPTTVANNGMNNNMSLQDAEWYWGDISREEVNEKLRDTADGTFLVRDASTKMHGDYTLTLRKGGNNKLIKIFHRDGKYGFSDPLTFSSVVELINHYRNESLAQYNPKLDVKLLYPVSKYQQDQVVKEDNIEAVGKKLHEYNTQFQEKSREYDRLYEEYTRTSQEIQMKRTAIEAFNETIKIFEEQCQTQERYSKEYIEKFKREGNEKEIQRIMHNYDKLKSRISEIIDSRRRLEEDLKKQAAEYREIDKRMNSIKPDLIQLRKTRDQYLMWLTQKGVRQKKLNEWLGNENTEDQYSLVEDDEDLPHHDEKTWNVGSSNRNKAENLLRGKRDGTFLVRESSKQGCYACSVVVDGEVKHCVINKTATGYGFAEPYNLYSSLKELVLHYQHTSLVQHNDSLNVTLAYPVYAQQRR
Assay: Transcreener KINASE Assay, kinase inhibition of p110β/p85α
Settings: read-out: PI3Kβ IC50
On a log10 scale: recorded IC50, unit nM.

• CC(=O)c1c[nH]c2ncnc(N[C@H](C)c3cn4ccc(F)c4c(=O)n3-c3ccccc3)c12 = 2.52
• CC(=O)c1c[nH]c2ncnc(N3CCC[C@H]3c3nn4ccc(Cl)c4c(=O)n3-c3cccc(F)c3)c12 = 2.28
• COc1ncc(-c2c[nH]c3ncnc(NC(C)c4cc5ncc(Cl)n5c(=O)n4-c4ccccc4)c23)cn1 (stereo not shown) = 1.89
• C[C@H]1CN(c2ncnc3[nH]cc(C#N)c23)[C@@H]1c1nn2ccc(Cl)c2c(=O)n1-c1ccc(F)cc1 = 2.49

// for each compound in input: emit log10 IC50
1. COc1ncc(-c2c[nH]c3ncnc(N4CC[C@H]4c4nn5ccc(Cl)c5c(=O)n4-c4ccccc4)c23)cn1
2. C[S@+]([O-])c1c[nH]c2ncnc(N3CCC[C@H]3c3nn4ccc(F)c4c(=O)n3-c3ccccc3)c12

0.78
2.57

Provide the documented log10 IC50 with p110β/p85α (Homo sapiens) as the system for "O=c1c2c(F)ccn2nc([C@@H]2C[C@H](F)CN2c2ncnc3[nH]cnc23)n1-c1ccccc1" 2.53
